- ASSAY SYSTEM: T1, human Factor XIIa-alpha (human, UniProt P00748 20-615)
- T1 sequence: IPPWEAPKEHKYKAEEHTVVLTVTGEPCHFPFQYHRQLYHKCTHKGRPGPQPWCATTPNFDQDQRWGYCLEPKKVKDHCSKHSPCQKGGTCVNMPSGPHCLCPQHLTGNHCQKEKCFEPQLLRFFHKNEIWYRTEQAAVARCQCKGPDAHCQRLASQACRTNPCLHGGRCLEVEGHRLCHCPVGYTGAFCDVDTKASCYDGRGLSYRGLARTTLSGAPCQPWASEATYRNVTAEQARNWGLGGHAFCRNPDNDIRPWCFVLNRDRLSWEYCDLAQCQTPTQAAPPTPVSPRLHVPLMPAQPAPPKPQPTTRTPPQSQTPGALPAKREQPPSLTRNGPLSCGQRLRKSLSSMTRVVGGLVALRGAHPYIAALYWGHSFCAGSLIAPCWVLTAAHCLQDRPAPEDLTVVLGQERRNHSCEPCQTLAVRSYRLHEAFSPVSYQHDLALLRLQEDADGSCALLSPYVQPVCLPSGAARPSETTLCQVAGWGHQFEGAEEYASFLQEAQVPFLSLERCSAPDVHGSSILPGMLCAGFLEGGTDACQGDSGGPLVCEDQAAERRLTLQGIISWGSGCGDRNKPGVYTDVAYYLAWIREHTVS
- EXPERIMENT: cell-based or functional assay
READOUT: % Inhibition, ratio FXIIa-alpha:Antibody 1:5 (%)
Use % as the unit, but write only the number.

Ask: % Inhibition, ratio FXIIa-alpha:Antibody 1:5 for VR115 (antibody, V domains shown) VH: EVQLLESGGGLVQPGGSLRLSCAASGFTFSKYIMQWVRQAPGKGLEWVSGIDIPTKGTVYADSVKGRFTISRDNSKNTLYLQMNSLRAEDTAVYYCARALPRSGYLISPHYYYYALDVWGQGTTVTVSS VL: QSELTQPPSASGTPGQRVTISCSGSSSNIGRNYVYWYQQVPGTAPKLLIYSNNQRPSGVPDRFSGSKSGTSASLVISGLRSEDEADYYCAAWDASLRGVFGGGTKLTVLG ?
Reply: 100
